Origin of values: patent US8263754B2

assay: Critical micelle concentration (CMC) by dye solubilization (Orange OT or DPH); type: physicochemical; details: determined by DPH (diphenylhexatriene) or Orange OT
Listed here are compounds together with their documented CMC.
measurement_label: CMC (mM)

INSERT INTO assay_data (compound, measurement_label, value) VALUES
  ('O=C(CC1(C2CCCCC2)CCCCCCC1)NC(CO[C@@H]1O[C@H](CO)[C@@H](O)[C@H](O)[C@H]1O)CO[C@@H]1O[C@H](CO)[C@@H](O)[C@H](O)[C@H]1O', 'CMC', 4.5),
  ('O=C(NCCO[C@H]1OC(CO)[C@H](O)C(O)[C@H]1O)C12CC3CC(CC(C3)C1)C2 (some centres unmarked)', 'CMC', 180),
  ('CCCCC(CCCC)(CC(=O)NCCO[C@@H]1O[C@H](CO)[C@@H](O[C@H]2O[C@H](CO)[C@@H](O)[C@H](O)[C@H]2O)[C@H](O)[C@H]1O)c1ccccc1', 'CMC', 4),
  ('CC(CC(=O)NC(CO[C@@H]1O[C@H](CO)[C@@H](O)[C@H](O)[C@H]1O)CO[C@@H]1O[C@H](CO)[C@@H](O)[C@H](O)[C@H]1O)(C1CCCCC1)C1CCCCC1', 'CMC', 4.7),
  ('CCCCC(CCCC)(CC(=O)NC(CO[C@H]1OC(CO)[C@H](O)C(O)C1O)CO[C@H]1OC(CO)[C@H](O)C(O)C1O)C1CCCCC1 (some centres unmarked)', 'CMC', 1.8);

====

Listed here are compounds together with their documented CMC (%).
test: Critical micelle concentration (CMC) by dye solubilization (Orange OT or DPH); assay type: physicochemical; conditions: determined by DPH (diphenylhexatriene) or Orange OT
measurement_label: CMC (%)

INSERT INTO assay_data (compound, measurement_label, output_unit, value) VALUES
  ('CCCC[C@]1(CC(=O)NCCO[C@H]2OC(CO)[C@H](O[C@@H]3OC(CO)[C@H](O)C(O)[C@H]3O)C(O)[C@H]2O)C2C[C@@H]3C[C@H](C2)C[C@@H]1C3 (stereo partly shown)', 'CMC (%)', '%', 0.16),
  ('CCCCC(CCCC)(CC(=O)NC(COC1OC(CO)C(O)C(O)C1O)COC1OC(CO)C(O)C(O)C1O)c1ccc(C)cc1 (stereo not shown)', 'CMC (%)', '%', 0.16),
  ('CCCCC(CCCC)(CC(=O)NC(CO[C@@H]1O[C@H](CO)[C@@H](O)[C@H](O)[C@H]1O)(CO[C@@H]1O[C@H](CO)[C@@H](O)[C@H](O)[C@H]1O)CO[C@@H]1O[C@H](CO)[C@@H](O)[C@H](O)[C@H]1O)c1ccc(-c2ccccc2)cc1', 'CMC (%)', '%', 0.34),
  ('O=C(NCCOC1OC(CO)C(OC2OC(CO)C(O)C(O)C2O)C(O)C1O)C(c1ccccc1)c1ccccc1 (stereo not shown)', 'CMC (%)', '%', 4.95),
  ('CCCCCCC(CCCCCC)(CC(=O)NC(CO[C@@H]1O[C@H](CO)[C@@H](O[C@H]2O[C@H](CO)[C@@H](O)[C@H](O)[C@H]2O)[C@H](O)[C@H]1O)CO[C@@H]1O[C@H](CO)[C@@H](O[C@H]2O[C@H](CO)[C@@H](O)[C@H](O)[C@H]2O)[C@H](O)[C@H]1O)c1ccccc1', 'CMC (%)', '%', 0.03),
  ('CCCCC(CCCC)(CC(=O)NC(CO[C@@H]1O[C@H](CO)[C@@H](O)[C@H](O)[C@H]1O)(CO[C@@H]1O[C@H](CO)[C@@H](O)[C@H](O)[C@H]1O)CO[C@@H]1O[C@H](CO)[C@@H](O)[C@H](O)[C@H]1O)C1CCCCC1', 'CMC (%)', '%', 0.32),
  ('CCCCC(CCCC)(CC(=O)NC(CO[C@@H]1O[C@H](CO)[C@@H](O)[C@H](O)[C@H]1O)CO[C@@H]1O[C@H](CO)[C@@H](O)[C@H](O)[C@H]1O)CC(C)C', 'CMC (%)', '%', 0.26),
  ('CCCCC(CCCC)(CC(=O)NC(CO[C@@H]1O[C@H](CO)[C@@H](O)[C@H](O)[C@H]1O)CO[C@@H]1O[C@H](CO)[C@@H](O)[C@H](O)[C@H]1O)c1ccc(C(C)(C)C)cc1', 'CMC (%)', '%', 0.03),
  ('CCCCCC(CC(=O)NC(CO[C@@H]1O[C@H](CO)[C@@H](O)[C@H](O)[C@H]1O)CO[C@@H]1O[C@H](CO)[C@@H](O)[C@H](O)[C@H]1O)(C1CCCCC1)C1CCCCC1', 'CMC (%)', '%', 0.014),
  ('CCCC[C@]1(CC(=O)NC(CO[C@H]2OC(CO)[C@H](O)C(O)[C@H]2O)CO[C@H]2OC(CO)[C@H](O)C(O)[C@H]2O)C2C[C@@H]3C[C@H](C2)C[C@@H]1C3 (stereo partly shown)', 'CMC (%)', '%', 0.41),
  ('CCCCC(CCCC)(CC(=O)NC(CO[C@@H]1O[C@H](CO)[C@@H](O[C@H]2O[C@H](CO)[C@@H](O)[C@H](O)[C@H]2O)[C@H](O)[C@H]1O)CO[C@@H]1O[C@H](CO)[C@@H](O[C@H]2O[C@H](CO)[C@@H](O)[C@H](O)[C@H]2O)[C@H](O)[C@H]1O)C1CCCCC1', 'CMC (%)', '%', 0.19),
  ('CCCCC(CCCC)(CC(=O)NC(CO[C@@H]1O[C@H](CO)[C@@H](O[C@H]2O[C@H](CO)[C@@H](O)[C@H](O)[C@H]2O)[C@H](O)[C@H]1O)CO[C@@H]1O[C@H](CO)[C@@H](O[C@H]2O[C@H](CO)[C@@H](O)[C@H](O)[C@H]2O)[C@H](O)[C@H]1O)c1ccc(C(C)(C)C)cc1', 'CMC (%)', '%', 0.34),
  ('CCCCC(CCCC)(CC(=O)NC(CO[C@H]1OC(CO)[C@H](O)C(O)[C@H]1O)CO[C@H]1OC(CO)[C@H](O)C(O)[C@H]1O)c1ccccc1 (stereo partly shown)', 'CMC (%)', '%', 0.24),
  ('CCCCCCCCCCCCCCC(=O)NC(CO[C@@H]1O[C@H](CO)[C@@H](O)[C@H](O)[C@H]1O)CO[C@@H]1O[C@H](CO)[C@@H](O)[C@H](O)[C@H]1O', 'CMC (%)', '%', 0.011),
  ('O=C(NCCO[C@@H]1O[C@H](CO)[C@@H](O[C@H]2O[C@H](CO)[C@@H](O)[C@H](O)[C@H]2O)[C@H](O)[C@H]1O)C(C1CCCCC1)C1CCCCC1', 'CMC (%)', '%', 0.82),
  ('CCCCC(CCCC)(CC(=O)NC(CO[C@H]1OC(CO)[C@H](O)C(O)C1O)CO[C@H]1OC(CO)[C@H](O)C(O)C1O)C1CCCCC1 (stereo partly shown)', 'CMC (%)', '%', 0.12);
